target: NHERF4_4, Q86UT5; experiment: holdup assay; parameters: key: below the threshold = too weak to quantify, mostly under pKd 3.1 to 4; details: plain residues with an end cap or a label only (N-terminal biotin on a linker: ado-ado)
Sequence (Q86UT5 464-550): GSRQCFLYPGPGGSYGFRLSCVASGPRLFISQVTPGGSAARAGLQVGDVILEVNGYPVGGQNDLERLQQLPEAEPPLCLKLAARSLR
Measured property: pKd

INSERT INTO results (binder, experimental_value) VALUES
  ('EKPIDSETKM [SLC1A3, P43003]', 'below the threshold'),
  ('SKQFDKNAYV [CLDN10, P78369]', 'below the threshold'),
  ('TKEIPNCTSV [SORCS3, Q9UPU3]', 4.05),
  ('YAEKRMLTEV [KCNA6, P17658]', 'below the threshold');

// pKd lookup, key: FLVTEFNVML [DFNB31, Q9P202] 4.84

Report pKd for EPAKETTTNV [SLC2A3, P11169] please. below the threshold

Dear colleague, I am looking for the recorded pKd of the following binder: RGKNRRQSIF [CDK18, Q07002] below the threshold

Endpoint output: pKd of EFKQTSSFLV [JAM1, Q9Y624] . Value? below the threshold
